Reference source for all entries: patent US20110105397A1

experiment: Human pharmacokinetics, heart failure subjects, 7.5-hour continuous ascending dose IV infusion; conditions: in vivo, infusion rate 3/18/54 ng/kg/min, median, N = 2
measuredAttribute: Tmax (h)

>>> testvalue("H-TKFTLSLDVPTNIMNLLFNIAKAKNLRAQAAANAHLMAQI-NH2 [SEQ ID NO: 1]")
6.04

---

assay: Nonclinical pharmacokinetics in cynomolgus monkeys; settings: male, cynomolgus monkey, in vivo, iv, Vss
measuredAttribute: Vd

>>> testvalue("H-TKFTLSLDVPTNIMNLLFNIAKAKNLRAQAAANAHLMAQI-NH2 [SEQ ID NO: 1]")
"0.788 L/kg"

---

experiment: in vivo; conditions: mongrel, dog, iv, 0.43 ng/kg/min, [SEQ ID NO: 1] plasma concentration
measuredAttribute: level at 1 h (ng/mL)

>>> testvalue("H-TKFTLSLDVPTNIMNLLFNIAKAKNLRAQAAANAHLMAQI-NH2 [SEQ ID NO: 1]")
0.0372
